Source listed as the supplement of paper PMC9732359.

- experiment.summary: protein stability index of a GFP-peptide fusion (yeast GPS) (PSI 1-4); higher = more stable; sorted into four equal gates, so the index is relative within each strain
- assay.setup: pdr5∆
Collected protein stability index values appear next to each entry.
value.type: protein stability index

> print(dat)
                         item.sequence  readout.value
 1            NFNKFFKIWHGEINKIC [PCI8]           1.13
 2            SARGIETRPAQVILPMS [FAS2]           2.93
 3            PQFNSPYDSNNSNTNLN [SWI1]           3.03
 4  HGKRRSQVVETHKVTDI [YMR129W/POM152]           3.01
 5            ETKADGILLETISVPQI [RRP6]           2.52
 6            NIKFLSKLEGTINKAVQ [ESC2]           3.35
 7            ISSGLLYLQDSNDKFVH [SRB8]           1.48
 8            EDALYLGKRSILAAAHR [PRE2]           3.33
 9            SDNSVSVRLQVTKILPH [IRR1]           2.92
10            PKIDEDDTWYNLTEFVQ [AAR2]           3.23
11            SEETQFKYVEDRFPLKL [ITC1]           3.09
12            DLKKFTSTITKYKQLLL [RPN3]              3
13            LRSTEYSKSFEQFKMVS [POP1]           2.63
14            SLQSCSVAVHFQYVIDE [SMC4]            1.3
15           GTQMTLKTFHFAGVASM [RPO31]           1.85

====

- experiment.summary: protein stability index of a GFP-peptide fusion (yeast GPS) (PSI 1-4); higher = more stable; sorted into four equal gates, so the index is relative within each strain
- assay.setup: ubr1∆
Outcome: criterion met for protein stability index of at least 3; criterion not met for anything lower.

> print(dat)
                         item.sequence           category
 1            VEAIRRSNQYQRGKMHG [NUT2]  criterion not met
 2  HGKRRSQVVETHKVTDI [YMR129W/POM152]      criterion met
 3           KPYYFSNNHKLSESDKK [RPN12]  criterion not met
 4           PYNLNLFPNELYNVMGI [RPC31]  criterion not met
 5            RKSAPVDSWDREFLKVD [SKP1]      criterion met
 6           KSVLGDGKKHSVFYTIL [RPO31]  criterion not met
 7            DSLSVPKVSAGDSGISP [SIR4]      criterion met
 8            TLPGDDELDQEILNLST [RPT5]      criterion met
 9            ISIFSTPGSVSLSAYNL [PRP8]  criterion not met
10            NNESNKNNNGDEKNKNN [MED2]      criterion met
11            GIQEVVHNTNSFIISSL [NUT1]  criterion not met
12            MGQGLCNNINKGLKEND [BRR2]      criterion met
13   SLRSNVVVAETSPEKKD [YAR002W/NUP60]  criterion not met
14            PYMPYYYYYHPMNAPTP [DSN1]  criterion not met
15            FLSKPSKALYPDYYMII [SNF2]  criterion not met
16            KSLPLLITVMEKSPDPT [YCS4]  criterion not met
17            TRSNPPFKRKMLLVDII [REC8]  criterion not met
18            LKRISDGLSFGKGESVI [SIR3]      criterion met
19            VWYGLSDGEDGHIPWHI [SSN2]      criterion met
20          ARAAKIAPRPLDLLRPV [RPL13B]  criterion not met
21            VYNNSKDEYLAQLDGRI [NSL1]      criterion met
22           SMMSDGIEHFDIPPPAI [RPO31]  criterion not met
23            NDLIVNYEDLATTQAAS [BRN1]      criterion met
24            KANIFQVIKNEVCAKMP [SSN2]  criterion not met
25            QWLNNALKRSYGIFGEG [POP8]      criterion met
26            QLKDMQTIEMITQIVEK [SRB8]  criterion not met
27  LLYELTAFKATVFFLIR [YJL039C/NUP192]  criterion not met
28            HEFKLIVGKKIQEFLVV [GRR1]  criterion not met
29            LGEEHPLQVARCTKIIK [RPT1]  criterion not met
30           LVPKRCLFESLSNEAAL [RPO31]  criterion not met
31            LSEWEEYLKGSESQLNS [YCS4]      criterion met
32            EPEFHALSQSSLLKTKL [RRI1]  criterion not met
33            GSPSLTSPQYIPSPLSS [NUT1]  criterion not met
34            KGAGLSMGTMICGYTRK [PRE2]  criterion not met
35           AAEKSFKPPKNKYKVVR [SEC65]      criterion met
36          IERYPSKVTKKHGAKKV [RPL27B]      criterion met
37           GAHLGRFVIWTEAAFTK [RPL4A]  criterion not met
38            NQNQRNVNETMSRSLAN [SMC3]  criterion not met
39            SKLEGTINKAVQVKVLG [ESC2]  criterion not met
40          SNGVLNVDNQTSDLVKS [RPS17A]  criterion not met
41            GEANKHHWEDLQKRVIE [RPN5]      criterion met
42            ELGNMTMLITGQRPDRA [SIN4]  criterion not met
43            NVRSVIRSSRSRGIVIG [RPP1]      criterion met
44  RSNGSVASLSKRNKLLT [YJL039C/NUP192]  criterion not met
45            GIPTDKGPRFRKLTSQE [PRE8]      criterion met
46            VKQYNKKWPQFYAAVQK [SIN4]  criterion not met
47            IRVTNSFALPFEEDEKN [RPN8]      criterion met
